# target under test: rat NaPi-2b (Rattus norvegicus, UniProt Q9JJ09)
# Sequence (Q9JJ09 whole entry): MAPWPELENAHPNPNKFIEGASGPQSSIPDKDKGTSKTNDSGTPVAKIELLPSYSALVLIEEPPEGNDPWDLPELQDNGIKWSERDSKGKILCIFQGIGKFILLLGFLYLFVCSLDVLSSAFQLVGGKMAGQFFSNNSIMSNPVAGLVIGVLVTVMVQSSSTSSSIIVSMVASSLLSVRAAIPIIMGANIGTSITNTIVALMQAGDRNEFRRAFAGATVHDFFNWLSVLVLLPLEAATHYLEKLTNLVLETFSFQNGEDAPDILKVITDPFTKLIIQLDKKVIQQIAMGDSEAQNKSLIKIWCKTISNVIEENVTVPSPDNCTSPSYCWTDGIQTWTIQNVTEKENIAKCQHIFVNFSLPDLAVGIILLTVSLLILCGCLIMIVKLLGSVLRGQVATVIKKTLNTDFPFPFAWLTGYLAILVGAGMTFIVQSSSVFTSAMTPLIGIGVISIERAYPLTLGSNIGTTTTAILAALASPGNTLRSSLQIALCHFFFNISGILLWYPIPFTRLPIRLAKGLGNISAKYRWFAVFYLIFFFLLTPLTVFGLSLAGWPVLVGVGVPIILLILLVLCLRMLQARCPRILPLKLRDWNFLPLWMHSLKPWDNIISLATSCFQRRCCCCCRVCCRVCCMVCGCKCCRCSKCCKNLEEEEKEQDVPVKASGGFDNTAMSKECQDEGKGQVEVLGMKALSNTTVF
# test protocol: Sodium-dependent phosphate uptake of Xenopus oocytes which expressed NaPi-2b (32P)
# protocol conditions: Xenopus oocytes expressing rat NaPi-2b, 32P radioactive phosphorus; read-out: IC50 (phosphate uptake inhibitory activity)
Can you tell me pIC50 for the items I'm about to list?
Keep it numeric: pIC50 is minus log10 of the concentration in mol/L.

Q. Report pIC50 for Cc1ccc(/C=N/NC(=O)c2cc(Cl)ccc2NC(=O)c2cccc(CN(C)CCO)c2)cc1 please.
A. 5.03

Q. Do the same for O=C(Nc1ccccc1C(=O)N/N=C/c1ccccc1Br)c1ccccc1 please
A. 4.65

Q. Input CCN(CC)CCN(C)Cc1cccc(C(=O)Nc2cc(OCCOC)c(OCCOC)cc2C(=O)N/N=C/c2ccc(C)c(C)c2)c1
A. 4.85

Q. Next up: CN(C)c1ccc(/C=C/C=N/NC(=O)c2ccccc2NC(=O)c2cccnc2)cc1
A. 4.27

Q. Now this one: O=C(Nc1ccc(Br)cc1C(=O)N/N=C/c1cccc(F)c1)c1ccc(F)cc1
A. 5.14

Q. Then this compound: O=C(Nc1sc2c(c1C(=O)N/N=C/c1cccc(F)c1)CCCC2)c1cccc(CN2CCC(CO)CC2)c1
A. 5.67

Q. Then what about the compound Cc1cccc(/C=N/NC(=O)c2cc(Br)ccc2NC(=O)c2ccc(CSCCCO)cc2)c1 ?
A. 5.76

Q. Param item: CC(O)CN(Cc1ccc(C(=O)Nc2ccc(Br)cc2C(=O)N/N=C/c2ccc(Cl)c(C(F)(F)F)c2)cc1)CC(C)O (stereo not drawn)
A. 4.65

Q. Same read-out for O=C(O)CCSCc1cccc(C(=O)Nc2ccc(N3CCCCC3)cc2C(=O)N/N=C/c2ccc(F)cc2)c1 ?
A. 5.59

Q. Another: CCN(CCO)Cc1cccc(C(=O)Nc2ccc(Cl)cc2C(=O)N/N=C/c2ccc(OC)cc2)c1
A. 5.23

Q. How about this compound: Cc1csc(NC(=O)c2cccc(CSCCCO)c2)c1C(=O)N/N=C/c1cccc(F)c1
A. 5.96

Q. Item: CCOCCN(CCOCC)Cc1ccc(C(=O)Nc2ccc(Br)cc2C(=O)N/N=C/c2ccc(Cl)c(C(F)(F)F)c2)cc1
A. 5.12

Q. Next compound: COc1ccc(/C=N/NC(=O)c2cc(Cl)ccc2NC(=O)c2ccc(OC)c(OC)c2)cc1Br
A. 6.21

Q. Please answer likewise for CCOc1ccc(C(=O)Nc2ccc(Br)cc2C(=O)N/N=C/c2cccc(F)c2)cc1
A. 4.64

Q. Next up: COc1ccc(C(=O)Nc2ccc(Br)cc2C(=O)N/N=C/c2ccc(F)cc2)cc1OC
A. 6.51

Q. // next record Cc1ccc(/C=N/NC(=O)c2cc(N3CCCCC3)ccc2NC(=O)c2cccc(CN3CCC(O)CC3)c2)cc1
A. 6.00

Q. Input CC(O)CN(Cc1cccc(C(=O)Nc2cscc2C(=O)N/N=C/c2cccc(F)c2)c1)CC(C)O (stereo not drawn)
A. 4.90

Q. Follow-up entry: O=C(Nc1ccc(Br)cc1C(=O)N/N=C/c1ccc(F)cc1)c1ccncc1
A. 4.52

Q. Repeat for the following compound: CCN(CC)CCN(CCN(CC)CC)Cc1cccc(C(=O)Nc2ccc(N3CCCCC3)cc2C(=O)N/N=C/c2ccc(OC)cc2)c1
A. 5.11

Q. Query Cc1cccc(/C=N/NC(=O)c2cc(Br)ccc2NC(=O)c2ccc(CN3CCN(CCO)CC3)cc2)c1 next
A. 5.60

Q. Moving on to the next compound: CCN(CC)CCN(C)Cc1cccc(C(=O)Nc2sc3c(c2C(=O)N/N=C/c2cccc(F)c2)CCCC3)c1
A. 5.63

Q. Follow-up item: O=C(Nc1ccc(Cl)cc1C(=O)N/N=C/c1ccc(F)cc1)c1cccc(CN2CCC(N3CCCCC3)CC2)c1
A. 5.84

Q. Same question for Cc1ccc(/C=N/NC(=O)c2cc(N3CCCCC3)ccc2NC(=O)c2cccc(CSCCO)c2)cc1C please.
A. 7.10

Q. // same read-out, input: CCN(CCO)Cc1ccc(C(=O)Nc2ccc(Cl)cc2C(=O)N/N=C/c2ccc(OC)cc2)cc1
A. 4.54

Q. Try this compound next: O=C(Nc1ccc(Br)cc1C(=O)N/N=C/c1ccc(F)cc1)c1ccc(CN2CCC(N3CCCCC3)CC2)cc1
A. 5.11

Q. Lookup Cc1ccc(/C=N/NC(=O)c2c(C)csc2NC(=O)c2cccc(CSc3nc[nH]n3)c2)cc1
A. 5.58

Q. Please do the same for CCN(CC)CCN(C)Cc1cccc(C(=O)Nc2ccc(Cl)cc2C(=O)N/N=C/c2ccc(OCCCN(C)C)cc2)c1 as well.
A. 4.24
